Value source: paper PMC5976253

# target.under.test: rat UT-B (Rattus norvegicus, UniProt P97689)
# Sequence (P97689 1-384): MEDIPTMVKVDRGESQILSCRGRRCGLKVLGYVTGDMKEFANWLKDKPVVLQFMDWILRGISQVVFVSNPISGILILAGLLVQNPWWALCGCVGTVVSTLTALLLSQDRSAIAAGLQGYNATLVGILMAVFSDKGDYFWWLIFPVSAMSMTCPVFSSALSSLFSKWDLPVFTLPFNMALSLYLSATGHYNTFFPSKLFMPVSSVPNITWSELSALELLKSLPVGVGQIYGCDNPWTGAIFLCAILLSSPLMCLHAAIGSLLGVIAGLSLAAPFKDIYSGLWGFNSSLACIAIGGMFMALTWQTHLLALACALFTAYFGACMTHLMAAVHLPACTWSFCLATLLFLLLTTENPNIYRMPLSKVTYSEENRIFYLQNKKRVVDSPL
# measurement.protocol: UT-B inhibition, erythrocyte lysis assay
# Format: cell-based
property: UT-B inhibition (in words)

CC(=O)Nc1ccc(-c2noc(C3CCCN(C(=O)c4ccccc4F)C3)n2)cc1 (stereo not shown) [compound 1] | little UT-B inhibition
COc1ccc(-c2cccc(-c3ccn(Cc4csc(C)n4)n3)c2)nn1 [compound 2] | little UT-B inhibition
O=C(Nc1ccon1)c1cc(-c2ccccc2)nc2ccccc12 [compound 3] | little UT-B inhibition
